system: ML4 (DNA, aptamer, none) TTCAAATCTTGGTACGTTCTGCCTTTTCTTATTTTGCTTTGGGTTACCTAGTCTAGATTTGAA; experiment: ITC; conditions: 0.5x PBS (about 68 mM NaCl, 1.4 mM KCl), 5 mM MgCl2; 0.5x PBS, 23 °C
For each of the compounds below, state its KD.
Report the value in µM with no unit label.

Q) State its KD for this compound: CN[C@H](C)Cc1ccccc1
A) 450

Q) Given the compound CCCC(C(=O)c1ccc2c(c1)OCO2)N1CCCC1 (stereo not shown) , write its reported KD.
A) 344

Q) Given CNC(C)Cc1ccc(O)cc1 (stereo not shown) , respond with its KD.
A) 255

Q) Supply recorded KD for CN[C@@H](C)[C@@H](O)c1ccccc1 here.
A) 372

Q) Give the reported KD for this compound. CC(N)Cc1ccccc1 (stereo not shown)
A) 117

Q) In one line, give reported KD of the entry CNC(C)Cc1ccc2c(c1)OCO2 (stereo not shown) .
A) 223

Q) Tell me its KD given COC(=O)C(c1ccccc1)C1CCCCN1 (stereo not shown) as the entry.
A) 749
